# System: MS2 coat protein
# test_details: apparent KD of MS2 coat protein; designed switch direction (-1 OFF switch, 1 ON switch): -1; higher = weaker reporter binding
# condition_context: Eterna round: R95; input ligand: none
Items are presented alongside their recorded apparent KD of MS2 coat protein.
measurement_kind: apparent KD of MS2 coat protein (µM)

chain | measurement_kind | endpoint_value
AGUAGAUCUACGCUUGCGUGGAUCUGCUAUGCAGGUGUCACAUGAGGAUCACCCAUGUCCUCAUUUGUUCGUCUUAU [JL turnoff v2 99.16] (puzzle: Sensor v3, turn-off variant 2) | apparent KD of MS2 coat protein | 0.0155
GUAGCUUCGGCUACUACAAGCUUUUUGCUCGUCUUAUUAACAUGAGGAUCACCCAUGUACAAGAGACCUCAUGUAUU [Sensor v3 - turn-off variant 2 - 13] (puzzle: Sensor v3, turn-off variant 2) | apparent KD of MS2 coat protein | 0.146
GAAAAGGUAGGAUAUACGAAAAAAAAGGGUAGAAAAAAGACACAUGAGGAUCACCCAUGUAGAAGGACCAAAAG [salish99_ex2_r3_019] (puzzle: Exclusion 2) | apparent KD of MS2 coat protein | 0.0303
UAAUUUAGUGUGAGGAUAUGCUGGUCGAUAGAUCAGCAGAAGGCACAUGAGGAUCACCCAUGUAAUAUAUUAAA [Mat - Exclusion 4 - JL Mod - D35] (puzzle: Brourd's mod of Exclusion 4) | apparent KD of MS2 coat protein | 0.0602
AAAAGGUGAGGAUAUGAGGCGCCGGGCCGGUUGGUGCGGAUUCAGAAGGCACAUGAGGAUCACCCAUGUAAUAA [Excls4-II] (puzzle: Exclusion 4) | apparent KD of MS2 coat protein | 0.0504
AAGAAACAUGAGGAUCACCCAUGUGAGGAUAUGACGAAGAAAAGAAAAGAAAGAAGAGUCAGAAGGCACAAAGG [salish99-ex1_r3_067] (puzzle: Exclusion 1) | apparent KD of MS2 coat protein | 0.109
GAUUAUGCGAGCUUUAGGGACAUGAGGAUCACCCAUGUUCGUCUUAUUAGUCUAAAUACGCUGACAUACCUAAAUCU [JMF 94] (puzzle: Sensor v3, turn-off variant 1) | apparent KD of MS2 coat protein | 0.0182
UAAUACAAGCAAAGAUCUUACAUGAGGAUCACCCAUGUGCUCGUCUUAUAAAGUACUAUCACGAAAGUGAUAGUACA [Mat - Sensor v3 - turn-off var 1 - Eli Mod - D93] (puzzle: Sensor v3, turn-off variant 1) | apparent KD of MS2 coat protein | 0.0319
AAGAAACGAGGAUAUACAGUUGAGUGAGAGAGGGAAGUGUUACAUGAGGAUCACCCAUGUAGAAGGCGUGAGAG [JR_Exclu2_Sub088] (puzzle: Exclusion 2) | apparent KD of MS2 coat protein | 0.0336
GAAAAGGUAGGAUAUACGAAAAAAAAGGGCAGAAAAAAAACACAUGAGGAUCACCCAUGUAGAAGGACCAAAAG [salish99_ex2_r3_065] (puzzle: Exclusion 2) | apparent KD of MS2 coat protein | 0.0232

---

Items are presented alongside their recorded apparent KD of MS2 coat protein.
# Test system: MS2 coat protein
# test_details: apparent KD of MS2 coat protein; designed switch direction (-1 OFF switch, 1 ON switch): 1; higher = weaker reporter binding
# condition_context: input ligand: FMN 200 uM
measurement_kind: apparent KD of MS2 coat protein (µM)

chain | target_or_system | measurement_kind | endpoint_value
AUUAUUUAUGCAGGAUAUGAUUAACAUGAGGAUCACCCAUGUGGUGUUGUGAGUAAGGAGAGUGAUCAGAAGGGCAUUUUUUCU [JMF's solution 55] (Eterna round: R96, puzzle: Same State NG 2) | MS2 coat protein | apparent KD of MS2 coat protein | 0.46
GCUGCAAUUAACGCCUACAUGAGGAUCACCCAUGUAUGUAGGCAGGAUAUCGUUUGCUUUGCAAACGAGAAGGGCCGUAGUAGC [JL SSNG3 1.12] (Eterna round: R96, puzzle: Same State NG 3) | MS2 coat protein | apparent KD of MS2 coat protein | 0.0228
CGCCAACGCAUAGGAUAUGCUUGUGUGGAUCGGGCAGAAGGGUGGUUGGAAACAUGAGGAUCACCCAUGUAAAAGUAAGAAAAU [Rierinqu] (Eterna round: R96, puzzle: Same State NG 1) | MS2 coat protein | apparent KD of MS2 coat protein | 1.45

---

# Test system: MS2 coat protein
# test_details: apparent KD of MS2 coat protein; designed switch direction (-1 OFF switch, 1 ON switch): -1; higher = weaker reporter binding
# condition_context: input ligand: none

chain | unit_info | apparent KD of MS2 coat protein
GUUUAGCAAGCGAGAUCCCACAUGAGGAUCACCCAUGUGCAUCCAGAAUUACUGGGUGCAAAAGCUCGUCUUAUAUG [mod-El /newdang-1] (Eterna round: R97, puzzle: Sensor, turn-off variant 1) | µM | 0.0718
AUAACAUGCUGGUGAUCAUACAUGAGGAUCACCCAUGUAACAAGCUUUUUGCUCGUCUUAUAAGAUCACCAGCAUGU [Stov1/9-A2] (Eterna round: R97, puzzle: Sensor, turn-off variant 1) | µM | 0.0154
ACAUGAGGAUCACCCAUGUAAACGUAAUGGCUCAUGUAGAGUCAGGAUAUGCGUGGCGAACUCGCGCAGAAGGGACAAGACUGG [Deportation 22 - Jieux - Exclusion NG 3] (Eterna round: R96, puzzle: Exclusion NG 3) | µM | 0.0286
GCCGAAAAUGUGAGGAUAUACCUAUGGAAACAUAGGUAGAAGGCACAUGAGGAUCACCCAUGUUCCUCAUCGGC [Mat - Exclusion 4 - Eli Mod - D17] (Eterna round: R97, puzzle: Brourd's mod of Exclusion 4) | µM | 0.12

---

# System: MS2 coat protein
# test_details: apparent KD of MS2 coat protein; designed switch direction (-1 OFF switch, 1 ON switch): -1; higher = weaker reporter binding
# condition_context: Eterna round: R95; input ligand: FMN 200 uM

chain | unit_info | apparent KD of MS2 coat protein
AGGGAUAAAGGAUAUACAUGAGGAUCACCCAUGUUGAGGAAAGUGAGAGGUGGCGAUAGUAGAAGGUUAGGUAG [JR_Exclu3_Sub082] (puzzle: Exclusion 3) | µM | 0.0868
CCGUUAUGAGGAUAUCGCUUGAAAGACAUGAGGAUCACCCAUGUGGGCGCGUCCUCAUGGCGAGAAGGCAUUACGA [Enmaatama] (puzzle: Exclusion 5) | µM | 0.00907
GUCCUCGUGGCGCCUAAACACAUGAGGAUCACCCAUGUACAGGCUUUUUGCCGUCUUAUAAUAAAACCGAGGAUACG [Zaveonqu] (puzzle: Sensor v3, turn-off variant 1) | µM | 0.0203
AAGAAACAUGAGGAUCACCCAUGUGAGGAUAUGACGAAGAAAAGAAAAGAAAGAAGAAUCAGAAGGCACAAAGG [salish99-ex1_r3_052] (puzzle: Exclusion 1) | µM | 0.0641
AAAAGGCUAGGAUAUCGCGGUAACAACAUGAGGAUCACCCAUGUGAAGGUGUCUUCUGCCCGAGAAGGAGCAGAGU [Tientixe] (puzzle: Exclusion 5) | µM | 0.0432

---

# Test system: MS2 coat protein
# test_details: apparent KD of MS2 coat protein, switch OFF state (with FMN for OFF switches, without FMN for ON switches); designed switch direction (-1 OFF switch, 1 ON switch): 1; higher = weaker reporter binding
# condition_context: FMN input: 0 or 200 uM; Eterna round: R93 (includes R88 designs)
Items are presented alongside their recorded apparent KD of MS2 coat protein.

chain | apparent KD of MS2 coat protein
AGCACGGGAUUGGAGGAUAUGUUGUUUGCAACAUGAGGAUCACCCAUGUCUGAGGCUGAAAAGCAGCAGAAGGCCGAUACAACCA [SS2-1.2] | 367 nM
AAUAAAAAUAGUCAGGAUAUGAGAAAUAAGACAUGAGGAUCACCCAUGUAAUAAGUAAAAGUAAAUUAGAAGGGACAGGGUGAAA [JR_SS002_Sub019] | 167 nM
AGAAAUAAAACACAGGAUAUCCAAAAGAAAACAUGAGGAUCACCCAUGUAAAAGAAAAUAAAAUGGGAGAAGGGUGAAAAUAAAG [Breaking Jandersonlee's winner (80%)] | 52.6 nM
AGGAGACAUGAGGAUCACCCAUGUGAGAAGAGGCGAGGAUAUCGAAAAAAAAAAAGAAAACGAGAAGGCGCGAGAA [salish99-SS1-014] | 59.9 nM
AAAAAACAUGAGGAUCACCCAUGUAAAAUUAUGGGAGGAUAUGGAAACACGAAAGUGAAACCAGAAGGCCUAAAAG [77%, Mat - Mod of Eli, 11] | 49.7 nM
AUGAAAGUAACGCAGGAUAUCCAGGAUACAACAUGAGGAUCACCCAUGUACAUACGAACGUAUAAGGAGAAGGGUGGAUGAUCUUC [ss2-3] | 48.2 nM
AAAAAAUAAAAAAAGGAUAUACUGCUAGAAACAUGAGGAUCACCCAUGUAACUAGCAGUAAUAAAAAAGAAGGAAAAAUAAAAAA [SS2: MS2 35] | 3.61 nM
GAAGACAUAGUACAGGAUAUAUGAAUAGUCACAUGAGGAUCACCCAUGUCCAUUUAUAUGGGCACAUAGAAGGGUGGUAGUUGUC [Mat - Same state - Malcolm Mod - D125] | 35.3 nM
AUAAAAGAAGCGAAGGAUAUCCAAAAUCCAACAUGAGGAUCACCCAUGUAAAGAAAGAAAAAAUGGGAGAAGGUCGCAAAGAAUA [73%, More Fisker Same State 2, D3, 11] | 31.3 nM
AAAAAACAUGAGGAUCACCCAUGUAAAAAAAUGGGAGGAUAUACAAAAAAAAAAAAAAAAGUAGAAGGCCUGAAAA [same state 10] | 533 nM
AUAAAUAAAAGAGAGGAUAUCCAAAAUAAAACAUGAGGAUCACCCAUGUAAAAUAAAAUAAAAUGGGAGAAGGCUCAAAAUAAAU [SS2 M 2] | 72.1 nM
AAUGAACAUGAGGAUCACCCAUGUUCUAAUAGUUGAGGAUAUGUGGGUGAAAAUAGCACGGCAGAAGGCGAGUGUA [SameState1 Malc#19] | 80.7 nM
